test: qHTS assay to identify aromatase inhibitors - cell viability counter screen (AID 743084); settings: MCF-7 aro ERE viability, CellTiter-Fluor, 24 h; series mostly up to 70.3 µM;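 note: cells stimulated with testosterone during compound exposure; nearly all actives have a fitted effect of over 55% in size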
Inconclusive results are not listed. Active and inactive are the calls of the source. Calls come from the whole dose curve; as a rule, active = well fitted cell-killing curve with a large enough effect in the repeat runs; inconclusive = weak or mixed curves, or effect the other way; inactive = no such curve, though single readings can be large or run the other way.
Assign a class; possible classes are active, inactive

Check out these entries, answers already filled in.
compound: C=CCCCCCCCCCC
class: inactive
//
compound: IC(I)I
class: inactive
//
compound: OC[C@@H](O)[C@@H](O[C@@H]1O[C@H](CO)[C@H](O)[C@H](O)[C@H]1O)[C@H](O)[C@@H](O)CO
class: inactive
//
compound: C1CN(SSN2CCOCC2)CCO1
class: active
//
compound: O=C1CCc2ccccc2O1
class: inactive

Challenge: Please share the test call associated with O=[Se](O)O .
Response given: inactive

Challenge: Please share the test call associated with CN1CCOCC1 .
Response given: inactive

Challenge: Please share the test call associated with CCC(Cc1c(I)cc(I)c(N)c1I)C(=O)O (stereo unspecified) .
Response given: inactive

Challenge: Please share the test call associated with CCCCCCOCCOCCO .
Response given: inactive

Challenge: Please share the test call associated with NCCN .
Response given: inactive

Challenge: Please share the test call associated with C[C@]12C=CC(=O)C=C1CC[C@H]1[C@@H]3C[C@@H](O)[C@](O)(C(=O)CO)[C@@]3(C)C[C@H](O)[C@@]12F .
Response given: inactive

Challenge: Please share the test call associated with C[C@]12CC[C@@H]3c4ccc(O)cc4CC[C@H]3[C@@H]1CC[C@H]2O .
Response given: inactive

Challenge: Please share the test call associated with Nc1cc(Cl)c(N)c(Cl)c1 .
Response given: inactive

Challenge: Please share the test call associated with CCO[Si](CCCNC(N)=O)(OCC)OCC .
Response given: inactive

Challenge: Please share the test call associated with COc1cc([C@H]2Oc3cc([C@H]4Oc5cc(O)cc(O)c5C(=O)[C@@H]4O)ccc3O[C@@H]2CO)ccc1O .
Response given: inactive

Challenge: Please share the test call associated with CN(C)/N=N/c1nc[nH]c1C(N)=O .
Response given: inactive

Challenge: Please share the test call associated with CC1(C)OC(=O)NC1=O .
Response given: inactive

Challenge: Please share the test call associated with CC(=O)OC(C)C .
Response given: inactive

Challenge: Please share the test call associated with CC(=O)[C@@]1(O)CC[C@H]2[C@@H]3C[C@H](C)C4=CC(=O)C=C[C@]4(C)[C@@]3(F)[C@@H](O)C[C@@]21C .
Response given: inactive

Challenge: Please share the test call associated with [O-]/[N+](=N\O)c1ccccc1 .
Response given: inactive

Challenge: Please share the test call associated with O=C(O)c1cc(=O)[nH]c(=O)[nH]1 .
Response given: inactive

Challenge: Please share the test call associated with CC(C)[N+](C)(CCOC(=O)C1c2ccccc2Oc2ccccc21)C(C)C .
Response given: inactive

Challenge: Please share the test call associated with Clc1ccc(Sc2cc(Cl)c(Cl)cc2Cl)cc1 .
Response given: inactive

Challenge: Please share the test call associated with COc1ccc(C(=O)c2ccccc2O)c(O)c1 .
Response given: inactive

Challenge: Please share the test call associated with Cc1ccc([N+](=O)[O-])c(C)c1 .
Response given: inactive

Challenge: Please share the test call associated with c1ccc2c(c1)ccc1ncccc12 .
Response given: inactive

###

experiment: qHTS assay to identify small molecule antagonists of the estrogen related receptor signaling pathway with the pleiotropic PPARgamma coactivator (PGC) from Tox21 10K library (AID 1224841); details: PGC/ERR reporter cell line, ONE-Glo luciferase, 18 h; series mostly up to 92.4 µM; note: actives are mostly falling curves and most rising ones were filed inactive; nearly all actives have a fitted effect of over 50% in size
Inconclusive results are not listed. Active and inactive are the calls of the source. No rule for the calls is given here.
Assign a class; possible classes are class 1 = active, class 0 = inactive

compound: CC(=O)[C@@]1(O)CC[C@H]2[C@@H]3C[C@H](C)C4=CC(=O)C=C[C@]4(C)[C@@]3(F)[C@@H](O)C[C@@]21C
class: class 0
--
compound: C=CC(=O)OCCCC
class: class 0
--
compound: COc1ccc(C(=O)c2ccccc2O)c(O)c1
class: class 0
--
compound: NCCOCCO
class: class 0
--
compound: C1CN(SSN2CCOCC2)CCO1
class: class 1
--
compound: CC(C)=CCO
class: class 0
--
compound: Cc1ccc(C(C)(C)C)c(O)c1
class: class 0
--
compound: CCO[Si](CCCNC(N)=O)(OCC)OCC
class: class 0
--
compound: O=C1CCc2ccccc2O1
class: class 0
--
compound: CN1CCOCC1
class: class 0

Challenge: Please share the test call associated with CC1(C)OC(=O)NC1=O .
Response given: class 0

Challenge: Please share the test call associated with COc1cc([C@H]2Oc3cc([C@H]4Oc5cc(O)cc(O)c5C(=O)[C@@H]4O)ccc3O[C@@H]2CO)ccc1O .
Response given: class 0

Challenge: Please share the test call associated with CCCCCC=O .
Response given: class 0

Challenge: Please share the test call associated with CC[C@]12CCCN3CCc4c(n(c5ccccc45)[C@@](O)(C(=O)OC)C1)[C@@H]32 .
Response given: class 0

Challenge: Please share the test call associated with C[C@]12CC[C@@H]3c4ccc(O)cc4CC[C@H]3[C@@H]1CC[C@H]2O .
Response given: class 0

Challenge: Please share the test call associated with O=C(O)c1ccc(O)cc1 .
Response given: class 0

Challenge: Please share the test call associated with Cc1ccc(S(=O)(=O)NCl)cc1 .
Response given: class 0

Challenge: Please share the test call associated with C=CCOC(=O)C(=C)C .
Response given: class 0

Challenge: Please share the test call associated with OCCNCCO .
Response given: class 0

Challenge: Please share the test call associated with C/C=C/C(=O)N(CC)c1ccccc1C .
Response given: class 0

Challenge: Please share the test call associated with O=C(O)c1cc(=O)[nH]c(=O)[nH]1 .
Response given: class 0

Challenge: Please share the test call associated with COCCOCCOCCO .
Response given: class 0

Challenge: Please share the test call associated with Nc1ccc2c(O)cc(S(=O)(=O)O)cc2c1 .
Response given: class 1

###

Biological target: Bile acid receptor (Homo sapiens) (UniProt Q96RI1)
Sequence (Q96RI1 whole entry, looked up): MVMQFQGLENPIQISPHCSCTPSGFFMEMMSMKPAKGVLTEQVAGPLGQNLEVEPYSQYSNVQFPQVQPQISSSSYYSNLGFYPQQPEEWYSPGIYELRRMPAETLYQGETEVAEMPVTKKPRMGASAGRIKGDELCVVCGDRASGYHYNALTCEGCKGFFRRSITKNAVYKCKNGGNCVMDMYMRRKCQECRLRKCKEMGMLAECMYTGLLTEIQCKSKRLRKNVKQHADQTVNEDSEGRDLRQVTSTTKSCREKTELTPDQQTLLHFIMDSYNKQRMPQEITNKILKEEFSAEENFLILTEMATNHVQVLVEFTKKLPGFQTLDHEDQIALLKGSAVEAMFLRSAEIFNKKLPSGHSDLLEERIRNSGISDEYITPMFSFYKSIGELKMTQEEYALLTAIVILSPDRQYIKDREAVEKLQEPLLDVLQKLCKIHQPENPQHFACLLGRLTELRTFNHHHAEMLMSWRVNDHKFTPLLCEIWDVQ
Test: qHTS assay to identify small molecule antagonists of the farnesoid-X-receptor (FXR) signaling pathway (AID 743217)
Settings: HEK293T FXR-UAS-bla, beta-lactamase ratio, CDCA-stimulated, 16 h; series mostly up to 62.6 µM
Description: U.S. Tox21 Program National Center for Advancing Translational Sciences [NCATS] NIH Chemical Genomics Center [NCGC] U.S. Environmental Protection Agency [EPA] National Institutes of Environmental Health Sciences [NIEHS] National Toxicology Program [NTP] U.S. Food and Drug Administration [FDA] Tox21 Assay Overview: The farnesoid-X-receptor (FXR), a nuclear hormone receptor, is highly expressed in liver, intestine, kidney and adrenal cortex. […]
Results filed as inconclusive are left out. Active and inactive are the calls of the source. The call rests on the fitted dose curve; in most records, active means well fitted inhibition curve with a large enough effect in the signal ratio in the repeat runs (not every such curve was filed as active); inconclusive means weak or mixed curves, or effect the other way; inactive means no such curve, though single readings can be large or run the other way; the % refers to the signal ratio.
Assign a class; possible classes are active, inactive

Check out these entries, answers already filled in.
compound: CC(C)(C)c1cccc(C(C)(C)C)c1O
class: inactive
//
compound: CN(Cc1cnc2nc(N)nc(N)c2n1)c1ccc(C(=O)N[C@@H](CCC(=O)O)C(=O)O)cc1
class: active
//
compound: CC(=O)OC(C)C
class: inactive
//
compound: CCc1cccc2c3c([nH]c12)C(CC)(CC(=O)O)OCC3 (stereo not given)
class: inactive
//
compound: IC(I)I
class: inactive
//
compound: C=CCNCC=C
class: inactive
//
compound: CCOC(=O)C(C)Oc1ccc(Oc2cnc3cc(Cl)ccc3n2)cc1 (stereo not given)
class: inactive
//
compound: NCCOCCO
class: inactive

Consider the record given below.
Challenge: Please share the test call associated with Cc1ccc([N+](=O)[O-])c(C)c1 .
Response given: inactive

###

molecular target: Progesterone receptor (Homo sapiens); assay: qHTS assay to identify small molecule agonists of the progesterone receptor (PR) signaling pathway (AID 1346784); conditions: PR-UAS-bla HEK293T, beta-lactamase FRET ratio, 16 h; series mostly up to 92.4 µM; note: % is set by controls: 0 for no effect and ±100 for the full control effect; nearly all actives have a fitted effect of over 30% in size
Results filed as inconclusive are left out. Active and inactive are the calls of the source. The call rests on the fitted dose curve.
recorded_endpoint: outcome

compound: O=C(O)CCCC(=O)O
recorded_endpoint: outcome
result: inactive

compound: OC[C@H]1O[C@@H]2O[C@H]3[C@H](O)[C@@H](O)[C@@H](O[C@H]4[C@H](O)[C@@H](O)[C@@H](O[C@H]5[C@H](O)[C@@H](O)[C@@H](O[C@H]6[C@H](O)[C@@H](O)[C@@H](O[C@H]7[C@H](O)[C@@H](O)[C@@H](O[C@H]1[C@H](O)[C@H]2O)O[C@@H]7CO)O[C@@H]6CO)O[C@@H]5CO)O[C@@H]4CO)O[C@@H]3CO
recorded_endpoint: outcome
result: inactive

compound: CCCCCCOCCOCCO
recorded_endpoint: outcome
result: inactive

compound: C=CCOC(=O)C(=C)C
recorded_endpoint: outcome
result: inactive

compound: c1ccc2c(c1)[nH]c1ccccc12
recorded_endpoint: outcome
result: inactive

compound: CCC/C=C/C=O
recorded_endpoint: outcome
result: inactive

compound: O=C1CCc2ccccc2O1
recorded_endpoint: outcome
result: inactive

compound: CC1(C)C(C=C(Cl)Cl)C1C(=O)OCc1cccc(Oc2ccccc2)c1 (stereo unspecified)
recorded_endpoint: outcome
result: inactive

Need outcome for each of these compounds.
1. CCCCCCCCCCCCO
2. COc1ccc2nc(N)sc2c1
3. CC(C)[C@@H]1CC[C@@H](C)CC1=O

Response given:
1: inactive; 2: inactive; 3: inactive

Measured values drawn from PubChem BioAssay (Tox21) for this set.
